- TARGET SYSTEM: T1, AFP158/HLA-A*02:01 complex (human)
- T1 construct: biotinylated on the BSP by BirA for ELISA and panning; also called biotinylated AFP158/HLA-A*02:01 complex; Bio-AFP158
- ASSAY SUMMARY: SPR; vs AS170036 VL1VH1
Reported Affinity increase is given for each of the following binders.

Record excerpt, results attached:
BINDER: AS170036 VL1VH1-VLH98A (scFv) scFv: QSALTQPRSVSGSPGQSVTISCAGTSSDVGSENYVSWYQQHPGKAPKLMIYQVNKRASGVPDRFSGSKSGNTASLTISGLQAEDEADYYCASYRSSDANIVFGGGTKLTVLGGGGSGGGGSGGGGSEVQLVESGGGLVQPGGSLRLSCAASGFTFSSYAMSWVRQAPGKGLEWVSTINSGTGSPYYADSVKGRFTISRDNSKNTLYLQMNSLRAEDTAVYYCAKNFFDGSWFLGPPAMDYWGQGTLVTVSSHHHHHH
Affinity increase: > 2 fold

BINDER: AS170036 VL1VH1-VHG108E (scFv) scFv: QSALTQPRSVSGSPGQSVTISCAGTSSDVGSENYVSWYQQHPGKAPKLMIYQVNKRASGVPDRFSGSKSGNTASLTISGLQAEDEADYYCASYRSSDHNIVFGGGTKLTVLGGGGSGGGGSGGGGSEVQLVESGGGLVQPGGSLRLSCAASGFTFSSYAMSWVRQAPGKGLEWVSTINSGTGSPYYADSVKGRFTISRDNSKNTLYLQMNSLRAEDTAVYYCAKNFFDGSWFLEPPAMDYWGQGTLVTVSSHHHHHH
Affinity increase: > 2 fold

Task: Which value of Affinity increase has been reported for AS170036 VL1VH1-VHS57M (scFv) scFv: QSALTQPRSVSGSPGQSVTISCAGTSSDVGSENYVSWYQQHPGKAPKLMIYQVNKRASGVPDRFSGSKSGNTASLTISGLQAEDEADYYCASYRSSDHNIVFGGGTKLTVLGGGGSGGGGSGGGGSEVQLVESGGGLVQPGGSLRLSCAASGFTFSSYAMSWVRQAPGKGLEWVSTINSGTGMPYYADSVKGRFTISRDNSKNTLYLQMNSLRAEDTAVYYCAKNFFDGSWFLGPPAMDYWGQGTLVTVSSHHHHHH in the records?
Result: > 2 fold
